Exercise: for every item that follows, state its recorded Ki.
# SYSTEM: 5-hydroxytryptamine receptor 2C (Homo sapiens)
# Sequence (P28335 whole entry): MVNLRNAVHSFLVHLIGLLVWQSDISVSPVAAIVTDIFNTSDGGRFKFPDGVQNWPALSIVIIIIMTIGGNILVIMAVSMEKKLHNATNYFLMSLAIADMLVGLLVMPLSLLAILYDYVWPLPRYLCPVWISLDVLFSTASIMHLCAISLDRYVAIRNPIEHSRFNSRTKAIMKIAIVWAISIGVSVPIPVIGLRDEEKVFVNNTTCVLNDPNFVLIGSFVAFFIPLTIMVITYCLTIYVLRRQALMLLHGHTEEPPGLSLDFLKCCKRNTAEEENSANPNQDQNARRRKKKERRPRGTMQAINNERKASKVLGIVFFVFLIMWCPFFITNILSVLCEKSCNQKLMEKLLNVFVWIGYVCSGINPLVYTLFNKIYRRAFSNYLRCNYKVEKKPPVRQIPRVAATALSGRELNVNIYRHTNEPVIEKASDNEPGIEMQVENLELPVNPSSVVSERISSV

[[record]]
molecule = "CCOC(=O)c1oc2c(c1C)C(=O)CC(CN1CCC(C(=O)c3ccc(F)cc3)CC1)C2 (stereo unspecified)"
measured_metric = "Ki"
observed_measurement = "> 10000 nM"


Quick batch: Ki for everything below.
1. O=C1CC(CN2CCC(c3noc4cc(F)ccc34)CC2)Cc2oc(-c3ccccc3)cc21 (stereo unspecified)
2. O=C1CC(CN2CCC(c3noc4cc(F)ccc34)CC2)Cc2occc21 (racemic)
3. O=C1CC(CN2CCN(C(=O)c3ccc(F)cc3)CC2)Cc2occc21 (stereo unspecified)
4. O=C1CC(CN2CCC(C(=O)c3ccc(F)cc3)CC2)Cc2occc21 (stereo unspecified)
5. O=C1C[C@@H](CN2CCC(c3noc4cc(F)ccc34)CC2)Cc2occc21

Result:
3310 nM
339 nM
> 10000 nM
1550 nM
245 nM
